SYSTEM NAME: MAO-A (Mus musculus, UniProt Q64133)
Construct: from tissue; host or cells: mouse brain
Sequence (Q64133 whole entry): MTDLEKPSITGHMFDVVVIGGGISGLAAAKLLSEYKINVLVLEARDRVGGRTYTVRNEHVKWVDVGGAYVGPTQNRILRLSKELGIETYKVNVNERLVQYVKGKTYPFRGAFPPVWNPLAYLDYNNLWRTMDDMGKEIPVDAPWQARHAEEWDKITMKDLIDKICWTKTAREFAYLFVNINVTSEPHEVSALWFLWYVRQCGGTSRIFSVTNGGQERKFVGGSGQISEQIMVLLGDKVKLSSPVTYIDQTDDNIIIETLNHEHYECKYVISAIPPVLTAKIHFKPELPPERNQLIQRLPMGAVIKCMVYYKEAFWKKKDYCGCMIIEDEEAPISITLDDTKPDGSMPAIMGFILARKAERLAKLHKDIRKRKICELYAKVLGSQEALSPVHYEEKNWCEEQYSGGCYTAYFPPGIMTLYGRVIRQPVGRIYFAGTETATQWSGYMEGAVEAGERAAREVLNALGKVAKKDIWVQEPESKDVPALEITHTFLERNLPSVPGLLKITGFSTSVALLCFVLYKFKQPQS
ASSAY PROTOCOL: Inhibition of MAO activity ex vivo (brain)
Type: in vivo, mice
EXPERIMENTAL CONDITIONS: mice, brain tissue
Catalogue of MAO-A Inhibition Ex vivo ED50 values

stdin: Could you share which MAO-A Inhibition Ex vivo ED50 value was measured for C#CCNC1CCc2ccc(OC(=O)N(C)C3CCCCC3)cc21 (stereo not shown) ?
stdout: >400 µmol/kg

stdin: Repeat with CN(C)C(=O)Oc1ccc2c(c1)C(N)CC2 (stereo not shown)
stdout: >>80 μmoles/kg

stdin: Repeat with CCN(C)C(=O)Oc1cccc2c1C(N)CC2 (stereo not shown)
stdout: >>277 μmoles/kg

stdin: Repeat with C#CCNC1CCc2cccc(OC(=O)N(C)CC)c21 (stereo not shown)
stdout: >>1200 μmoles/kg

stdin: Repeat with CCN(C)C(=O)Oc1ccc2c(c1)C(NC)CC2 (stereo not shown)
stdout: >175 µmol/kg

stdin: Repeat with C#CCNC1CCc2ccc(OC(=O)N(C)c3ccc(OC)cc3)cc21 (stereo not shown)
stdout: >100 µmol/kg

stdin: Repeat with C#CCNC1CCc2ccc(OC(=O)N(C)C)cc21 (single isomer, unassigned) [Compound 54]
stdout: >100 µmol/kg

stdin: Repeat with CNC1CCc2ccc(OC(=O)N(C)C)cc21 (stereo not shown)
stdout: >>50 μmoles/kg

stdin: Repeat with C#CCN(CC)C1CCc2ccc(OC(=O)N(C)C)cc21 (stereo not shown)
stdout: >100 µmol/kg

stdin: Repeat with C#CCNC1CCc2cccc(OC(=O)N(C)C)c21 (stereo not shown)
stdout: >>160 μmoles/kg
